Please go through the items and note down their Kd.
Target: equine FcRn (large alpha subunit p51) / equine beta-2-microglobulin complex, biotinylated (equine) (UniProt P30441)
Experiment: SPR (Biacore), pH 6
Please answer in the form of a number followed by its unit of measurement.

| Binder | Result |
| --- | --- |
| equine IgG4 A426I (antibody, part only; not given: variable domains, not shown: another chain or arm of the molecule) constant: ASTTAPKVFPLASHSAATSGSTVALGCLVSSYFPEPVTVSWNSGALTSGVHTFPSVLQSSGLYSLSSMVTVPASSLKSQTYICNVAHPASSTKVDKKIVIKECNGGCPAECLQVGPSVFIFPPKPKDVLMISRTPTVTCVVVDVGHDFPDVQFNWYVDGVETHTATTEPKQEQFNSTYRVVSVLPIQHKDWLSGKEFKCKVNNKALPAPVERTISKPTGQPREPQVYVLAPHRDELSKNKVSVTCLVKDFYPTDIDIEWKSNGQPEPETKYSTTPAQLDSDGSYFLYSKLTVETNRWQQGTTFTCIVMHEALHNHYTEKSVSKSPGK | 17.4 nM |
| equine IgG4 N434K (antibody, part only; not given: variable domains, not shown: another chain or arm of the molecule) constant: ASTTAPKVFPLASHSAATSGSTVALGCLVSSYFPEPVTVSWNSGALTSGVHTFPSVLQSSGLYSLSSMVTVPASSLKSQTYICNVAHPASSTKVDKKIVIKECNGGCPAECLQVGPSVFIFPPKPKDVLMISRTPTVTCVVVDVGHDFPDVQFNWYVDGVETHTATTEPKQEQFNSTYRVVSVLPIQHKDWLSGKEFKCKVNNKALPAPVERTISKPTGQPREPQVYVLAPHRDELSKNKVSVTCLVKDFYPTDIDIEWKSNGQPEPETKYSTTPAQLDSDGSYFLYSKLTVETNRWQQGTTFTCAVMHEALHKHYTEKSVSKSPGK | 42.8 nM |
| equine IgG4 Y436W (antibody, part only; not given: variable domains, not shown: another chain or arm of the molecule) constant: ASTTAPKVFPLASHSAATSGSTVALGCLVSSYFPEPVTVSWNSGALTSGVHTFPSVLQSSGLYSLSSMVTVPASSLKSQTYICNVAHPASSTKVDKKIVIKECNGGCPAECLQVGPSVFIFPPKPKDVLMISRTPTVTCVVVDVGHDFPDVQFNWYVDGVETHTATTEPKQEQFNSTYRVVSVLPIQHKDWLSGKEFKCKVNNKALPAPVERTISKPTGQPREPQVYVLAPHRDELSKNKVSVTCLVKDFYPTDIDIEWKSNGQPEPETKYSTTPAQLDSDGSYFLYSKLTVETNRWQQGTTFTCAVMHEALHNHWTEKSVSKSPGK | 20.2 nM |

// next item, Kd requested
Give the value of Kd reported for the following: equine IgG4 WT (antibody, part only; not given: Variable domains; allotype unconfirmed, not shown: another chain or arm of the molecule) constant: ASTTAPKVFPLASHSAATSGSTVALGCLVSSYFPEPVTVSWNSGALTSGVHTFPSVLQSSGLYSLSSMVTVPASSLKSQTYICNVAHPASSTKVDKKIVIKECNGGCPAECLQVGPSVFIFPPKPKDVLMISRTPTVTCVVVDVGHDFPDVQFNWYVDGVETHTATTEPKQEQFNSTYRVVSVLPIQHKDWLSGKEFKCKVNNKALPAPVERTISKPTGQPREPQVYVLAPHRDELSKNKVSVTCLVKDFYPTDIDIEWKSNGQPEPETKYSTTPAQLDSDGSYFLYSKLTVETNRWQQGTTFTCAVMHEALHNHYTEKSVSKSPGK 22.5 nM
